# SUBJECT OF TEST: AgAbp1
# MEASUREMENT DESCRIPTION: SPOT peptide array binding signal intensity (averaged, normalized) (arbitrary units (background-subtracted, floor 0; scale differs between SH3 domains)); higher = stronger binding of the SH3 domain to the peptide
MEASURE NAME: SPOT peptide array binding signal intensity

[
  {
    "BINDER": "QPPLPSSAPPIPTSH",
    "TEST RESULT": "≤ 0"
  },
  {
    "BINDER": "VYTRTAFQIPGDDKI",
    "TEST RESULT": "≤ 0"
  },
  {
    "BINDER": "PSTMDFPKLPSFQNS",
    "TEST RESULT": 3
  }
]
